# Test system: Malme-3M
# protocol_text: NCI tumour cell line growth inhibition, 48 h
The source made the active and inactive calls. No stated cut-off is given here; in the data, active = GI50 up to about 1.1 µM and inactive = higher.
Allowed answers: yes (1) for active, no (0) for inactive

A selection of reference data follows.
> print(dat)
                                    compound  assigned.class
 1  CCOC(=O)C1(C#N)C(c2ccccc2)CC(O)(c2ccc(Cl)cc2)C(C(=O)c2ccc(Cl)cc2)C1c1ccccc1 (configuration not stated)          no (0)
 2  COc1cc2c(c(OC)c1OC)-c1ccc(SC)c(=O)cc1C(CC(=O)Oc1ccccc1F)C2 (configuration not stated)         yes (1)
 3  O=C(CCc1cccc(O)c1)NCCCNC(=O)CCc1cccc(O)c1          no (0)
 4  Cc1ccc(Oc2ccc(C(=O)c3cccc(C(=O)c4ccc(Oc5ccc(C)cc5)cc4)n3)cc2)cc1          no (0)
 5  O=C1N=CN=C2C=CC(Cl)=C(I)C12 (configuration not stated)          no (0)
 6  COc1cc(OC2OC(CO)C(O)C(O)C2O)c2c(O)c3c(=O)cc(C)oc3cc2c1 (configuration not stated)          no (0)
 7  O=C(O)c1nc(-c2ccc(Cl)c(Cl)c2)nc2ccc(Cl)cc12          no (0)
 8  Cc1cc2c(C(C)C)c(O)c(O)c(C=O)c2c(O)c1-c1c(C)cc2c(C(C)C)c(O)c(O)c(C=O)c2c1O          no (0)
 9  CC1CNC(c2cccc(-c3nc(-c4cccc(C5=NC(C)CN5)c4)nc(N(C)C)n3)c2)=N1 (configuration not stated)          no (0)
10  C=C1c2nc3ccccc3n2C=C(c2ccc(OC)cc2)N1c1ccccc1          no (0)

Query string: Any idea what this test logged for `CSC1(SC2=NCCN2)SC2(NCCN2)S1` ?
Result string: no (0)

Query string: Any idea what this test logged for `C/C(=N\n1c(Cc2ccccc2)n[nH]c1=O)c1ccccc1` ?
Result string: no (0)

Query string: Any idea what this test logged for C=CC1(C)CCC2=C(CCC3C(C)(C(=O)OC)CCCC23C)C1=O (configuration not stated) ?
Result string: no (0)

Query string: Any idea what this test logged for `Cc1c2ccncc2c(C)c2c1[nH]c1ccccc12` ?
Result string: no (0)

Query string: Any idea what this test logged for `O=[N+]([O-])c1ccc(N/N=C2/CC3=C2CCCCCCCCCC3)c([N+](=O)[O-])c1` ?
Result string: no (0)

Query string: Any idea what this test logged for `CC(=O)NNc1nc(C)c(C(/C=C/c2ccc(Cl)cc2)=N\NS(=O)(=O)c2ccc(C)cc2)s1` ?
Result string: no (0)

Query string: Any idea what this test logged for CC(=O)N1N=C(c2cc(C)ccc2O)CC1c1cccc(Cl)c1 (configuration not stated) ?
Result string: no (0)

Query string: Any idea what this test logged for COc1ccc(N2C(=O)C(Cl)C2c2cc3cc(Br)ccc3nc2Cl)cc1 (configuration not stated) ?
Result string: no (0)

Query string: Any idea what this test logged for `CC(=O)OCc1ccc(-c2nc(C#N)c(N)o2)o1` ?
Result string: no (0)

====

# Lookup of reported GI50 keyed by entry
# System: RXF 393
# protocol_text: NCI tumour cell line growth inhibition, 48 h
Activity calls are given as the source filed them. Rule as the data show it: active = GI50 up to about 1.1 µM and inactive = higher.

> print(dat)
                                   molecule  test.target       value.reported
1  COc1cc(C(=O)C2CC3(CCC2(O)c2cc(OC)c(OC)c(OC)c2)CC(=O)Nc2ccccc2C3=O)cc(OC)c1OC (stereo not given)      RXF 393   99.5 µM (inactive)
2    c1ccc(SC(Sc2ccccc2)c2ccc3c(c2)OCO3)cc1      RXF 393  > 100 µM (inactive)
3  C=C1c2nc3ccccc3n2C=C(c2ccccc2)N1c1ccccc1      RXF 393   22.4 µM (inactive)
4  COC(=O)C1Cc2c([nH]c3ccccc23)C=N1 (stereo not given)      RXF 393  > 100 µM (inactive)

Please examine the following record next.
Query string: Report value only: GI50, RXF 393, CC(=O)OC1COC(N2CCc3ccccc32)C(OC(C)=O)C1OC(C)=O (stereo not given)
Result string: > 100 µM (inactive)
